Kindly supply the reported pIC50 values for the records listed here.
test: blockers of orphan receptor GPR35 – imaging, image-based, set 2, SAR follow-up (AID 2480)
pIC50: −log10 of the molar value.

Dear colleague, please send me the reported pIC50 for CC(C)COc1ccc(-c2nnc(-c3ccc(Cl)nc3)o2)cc1 when you can.
< 4.49

Dear colleague, please send me the reported pIC50 for COc1ccc(-c2nnc(-c3cccnc3)o2)cc1 when you can.
< 4.49

Dear colleague, please send me the reported pIC50 for Cc1ccccc1OCCC(=O)NCCc1ccc(S(N)(=O)=O)cc1 when you can.
< 4.49

Dear colleague, please send me the reported pIC50 for CCc1ccc(NC(=O)CSc2nc3ccsc3c(=O)n2Cc2ccc(OC)cc2)cc1 when you can.
< 4.49

Dear colleague, please send me the reported pIC50 for Cc1ccccc1N1CCN(c2ncnc3c2cnn3Cc2ccc(Cl)cc2)CC1 when you can.
5.65

----------
Kindly supply the reported pIC50 values for the records listed here.
assay: blockers of orphan receptor GPR35 – imaging, image-based, set 2, SAR follow-up (AID 2480)
The read-out pIC50 is expressed as -log10 of concentration in moles per litre.

Dear colleague, please send me the reported pIC50 for C=CCn1c(C)c(/C=C/c2cc[n+](C)cc2)c2ccccc21 when you can.
5.30

Dear colleague, please send me the reported pIC50 for O=C(Nc1ccc2nc(SCc3ccccc3)sc2c1)c1ccccc1C(=O)N1CCOCC1 when you can.
5.79

Dear colleague, please send me the reported pIC50 for CCc1ccc(/C=C2\SC(=S)N(CCCC(=O)Nc3ccc(C(=O)O)cc3)C2=O)cc1 when you can.
7.14

Dear colleague, please send me the reported pIC50 for Cc1nc(N2CCC(C)CC2)c2c(C)c(C(=O)Nc3ccc(C)c(F)c3)sc2n1 when you can.
5.21

Dear colleague, please send me the reported pIC50 for CC(C)(C)c1ccc(OCCC(=O)NCCc2ccc(S(N)(=O)=O)cc2)cc1 when you can.
5.65

Dear colleague, please send me the reported pIC50 for O=C(CCCN1C(=O)/C(=C\c2ccccc2)SC1=S)Nc1ccc(C(=O)O)cc1 when you can.
5.77

Dear colleague, please send me the reported pIC50 for COc1ccc(/C=C2/SC(=S)N(CCCC(=O)Nc3ccc(O)cc3)C2=O)cc1 when you can.
5.97

----------
Kindly supply the reported pIC50 values for the records listed here.
test: blockers of orphan receptor GPR35 – imaging, image-based, set 2, SAR follow-up (AID 2480)
The read-out pIC50 is expressed as -log10 of concentration in moles per litre.

Dear colleague, please send me the reported pIC50 for O=C(CCCN1C(=O)/C(=C\c2ccccc2)SC1=S)Nc1cccc(C(=O)O)c1 when you can.
5.80

Dear colleague, please send me the reported pIC50 for Cc1nc(N2CCC(C)CC2)c2c(C)c(C(=O)Nc3ccc4c(c3)OCCO4)sc2n1 when you can.
5.73

Dear colleague, please send me the reported pIC50 for COc1ccc(/C=C2\SC(=S)N(CCCC(=O)Nc3ccc(C(=O)O)c(O)c3)C2=O)cc1OC when you can.
6.82
